targetSystem: T1, SCREAM (SCRM), recombinant full-length protein (1-494) (A. thaliana, UniProt Q9LSE2 1-494)
T1 construct: SCRM (ICE1), A. thaliana, residues 1-494; called full-length in the results; The methods describe thrombin removal of GST for all recombinant proteins; For the BLI runs of SCRM with MUTE one partner must have kept GST (anti-GST probes); also called ICE1; source: E. coli BL21, purified (glutathione resin, thrombin digestion, Superdex-200); not shown: GST, N-terminal, cleaved
T1 sequence (looked up): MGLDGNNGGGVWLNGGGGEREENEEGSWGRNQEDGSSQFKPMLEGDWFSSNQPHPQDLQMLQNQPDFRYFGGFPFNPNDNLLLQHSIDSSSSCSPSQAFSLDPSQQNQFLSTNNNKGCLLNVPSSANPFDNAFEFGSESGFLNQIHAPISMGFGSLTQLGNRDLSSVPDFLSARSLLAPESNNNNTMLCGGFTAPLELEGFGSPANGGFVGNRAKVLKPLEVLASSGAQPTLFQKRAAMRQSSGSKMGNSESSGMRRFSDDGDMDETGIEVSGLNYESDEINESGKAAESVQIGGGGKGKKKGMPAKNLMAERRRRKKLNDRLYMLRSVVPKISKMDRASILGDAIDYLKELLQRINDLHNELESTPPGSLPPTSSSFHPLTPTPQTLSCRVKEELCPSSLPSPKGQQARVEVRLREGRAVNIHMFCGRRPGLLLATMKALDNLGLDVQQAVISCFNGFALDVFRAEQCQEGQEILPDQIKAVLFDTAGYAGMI
methodSummary: BLI; SCRM with MUTE or MUTE mutants, no compound; Octet Red96, anti-GST probes loaded with 500 nM GST-tagged protein; 30 °C; 1x PBS, 2% DMSO, 0.02% Tween20; 1:1 model; KD (SS) from steady-state analysis
runParameters: both partners purified
outcomeMeasure: koff (s⁻¹)
One number for each entry, in s⁻¹.

[Q] For MUTE_R133A_R134A_E162A_E163A, recombinant (natural protein, A. thaliana, UniProt Q9M8K6 1-202, looked up, MUTE, A. thaliana, with R133A, R134A, E162A and E163A; source: E. coli BL21, purified (glutathione resin)) MSHIAVERNRRRQMNEHLKSLRSLTPCFYIKRGDQASIIGGVIEFIKELQQLVQVLESKKRRKTLNRPSFPYDHQTIEPSSLGAATTRVPFSRIENVMTTSTFKEVGACCNSPHANVEAKISGSNVVLRVVSAAIVGQLVKIISVLEKLSFQVLHLNISSMAATVLYFFVVKIGLECHLSLEELTLEVQKSFVSDEVIVSTN , what is its reported koff?
[A] 0.000414

Recorded values, source paper PMC11500415.
